experiment: Example 5: acute toxicity, single gavage administration; assay type: in vivo, ICR mice; details: both sexes, mouse, in vivo, po; ICR mice; single gavage administration; read-out: maximum tolerated dose (MTD)
readout kind: MTD at 1 day (mg/kg/day)
Give bare numbers, in mg/kg/day.

Q. # get_value(readout='MTD at 1 day', item= COC1=C(OC)C(=O)C(CCCCCCCCCCOC(=O)Cc2c(C)n(C(=O)c3ccc(Cl)cc3)c3ccc(OC)cc23)=C(C)C1=O )
A. 300

---

experiment: Example 5: acute toxicity, single gavage administration; type: in vivo, ICR mice; conditions: both sexes, mouse, in vivo, po; ICR mice; single gavage administration
readout kind: LD50 at 1 day

Q. I have this compound here, COC1=C(OC)C(=O)C(CCCCCCCCCCOC(=O)Cc2c(C)n(C(=O)c3ccc(Cl)cc3)c3ccc(OC)cc23)=C(C)C1=O [compound of formula (I)] , and I need its recorded LD50 at 1 day.
A. > 3000 mg/kg
